Values from patent US8865750B2

- Study target: UniProtKB P57771
- Test details: FCPIA: Gαo binding to RGS8
- Experimental conditions: Table 3, duplex FCPIA, average of two experiments; read-out: RGS8 IC50
IC50 by entry:
All answers are understood in µM, so give the number only.

**Q:** Consider the compound shown here: Cc1cccc(-n2sc(=O)n(Cc3ccc(F)cc3)c2=O)c1 What is its recorded IC50?
**A:** 7.1

**Q:** Consider the compound shown here: O=c1sn(-c2ccc(Cl)cc2)c(=O)n1Cc1ccc(F)cc1 What is its recorded IC50?
**A:** 7.6

**Q:** Consider the compound shown here: O=c1sn(-c2cccc(Cl)c2)c(=O)n1Cc1cccc(Cl)c1 What is its recorded IC50?
**A:** 21.1

**Q:** Consider the compound shown here: O=c1sn(-c2cccc(Cl)c2)c(=O)n1Cc1ccc(F)cc1 What is its recorded IC50?
**A:** 12.8

**Q:** Consider the compound shown here: CCCCn1sc(=O)n(C)c1=O What is its recorded IC50?
**A:** 28.4

**Q:** Consider the compound shown here: COc1ccc(Cn2c(=O)sn(-c3ccc(Cl)cc3)c2=O)cc1 What is its recorded IC50?
**A:** 9.9

**Q:** Consider the compound shown here: Cc1ccc(-n2sc(=O)n(Cc3cccc(Cl)c3)c2=O)cc1 What is its recorded IC50?
**A:** 17.5

**Q:** Consider the compound shown here: Cc1cccc(-n2sc(=O)n(Cc3cccc(Cl)c3)c2=O)c1 What is its recorded IC50?
**A:** 10.1

**Q:** Consider the compound shown here: O=c1sn(-c2ccc(Cl)c(Cl)c2)c(=O)n1Cc1ccc(Cl)c(Cl)c1 What is its recorded IC50?
**A:** 125

**Q:** Consider the compound shown here: O=c1sn(-c2cccc(C(F)(F)F)c2)c(=O)n1Cc1ccccc1 What is its recorded IC50?
**A:** 16.4

**Q:** Consider the compound shown here: Cc1cccc(Cn2c(=O)sn(-c3cccc(C)c3)c2=O)c1 What is its recorded IC50?
**A:** 10.4

**Q:** Consider the compound shown here: O=c1sn(-c2ccc(Cl)cc2)c(=O)n1Cc1ccc(Cl)cc1 What is its recorded IC50?
**A:** 12.7

**Q:** Consider the compound shown here: O=c1sn(-c2ccc(Cl)cc2)c(=O)n1Cc1ccc(Cl)c(Cl)c1 What is its recorded IC50?
**A:** 16.7

**Q:** Consider the compound shown here: Cc1ccc(Cn2c(=O)sn(-c3ccccc3)c2=O)cc1 What is its recorded IC50?
**A:** 8.3

**Q:** Consider the compound shown here: Cc1cccc(Cn2c(=O)sn(-c3ccccc3)c2=O)c1 What is its recorded IC50?
**A:** 8.4

* * *

- Study target: RGS8 (Homo sapiens (Human), UniProt P57771)
- Sequence (P57771 other isoform, or with tags, fused parts or gaps): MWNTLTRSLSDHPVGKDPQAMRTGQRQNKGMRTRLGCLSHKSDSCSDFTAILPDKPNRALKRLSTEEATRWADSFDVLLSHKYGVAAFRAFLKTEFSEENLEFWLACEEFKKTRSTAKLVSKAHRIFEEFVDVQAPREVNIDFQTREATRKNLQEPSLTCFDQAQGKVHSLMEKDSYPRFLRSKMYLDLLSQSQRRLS
- Test details: FCPIA: Gαo binding to RGS8
- Experimental conditions: Table 3
Label Yes when RGS8 Hill Slope >= -1; otherwise No.

Cc1cccc(Cn2c(=O)sn(-c3cccc(C(F)(F)F)c3)c2=O)c1; No

**Q:** Answer whether RGS8 Hill Slope of CCCCn1c(=O)sn(-c2ccc(C)cc2)c1=O is greater than or equal to -1.
**A:** Yes

**Q:** Answer whether RGS8 Hill Slope of O=c1sn(-c2cccc(C(F)(F)F)c2)c(=O)n1Cc1ccccc1 is greater than or equal to -1.
**A:** No

**Q:** Answer whether RGS8 Hill Slope of O=c1sn(-c2cccc(Cl)c2)c(=O)n1Cc1ccc(F)cc1 is greater than or equal to -1.
**A:** No

**Q:** Answer whether RGS8 Hill Slope of CCCCn1c(=O)sn(CC)c1=O is greater than or equal to -1.
**A:** Yes

**Q:** Answer whether RGS8 Hill Slope of O=c1sn(-c2ccccc2)c(=O)n1Cc1ccc(Cl)c(Cl)c1 is greater than or equal to -1.
**A:** Yes

**Q:** Answer whether RGS8 Hill Slope of Cc1ccc(Cn2sc(=O)n(Cc3ccc(C)cc3)c2=O)cc1 is greater than or equal to -1.
**A:** Yes

**Q:** Answer whether RGS8 Hill Slope of Cc1ccc(Cn2c(=O)sn(-c3ccc(Cl)cc3)c2=O)cc1 is greater than or equal to -1.
**A:** No

**Q:** Answer whether RGS8 Hill Slope of O=c1sn(-c2ccc(Cl)c(Cl)c2)c(=O)n1Cc1ccc(Cl)c(Cl)c1 is greater than or equal to -1.
**A:** Yes

**Q:** Answer whether RGS8 Hill Slope of Cc1ccc(Cn2sc(=O)n(Cc3ccc(Cl)c(Cl)c3)c2=O)cc1 is greater than or equal to -1.
**A:** Yes

* * *

- Study target: UniProt:P57771
- Test details: FCPIA: Gαo binding to RGS8
- Experimental conditions: Table 3, duplex FCPIA, average of two experiments; read-out: RGS8 IC50
Flag rule - IC50 less than 20 µM flags true (1); the remaining entries get false (0).

Check out these entries, answers already filled in.
Cc1ccc(-n2sc(=O)n(Cc3ccc(C(C)(C)C)cc3)c2=O)cc1 [S34]; false (0)
Cc1ccc(Cn2sc(=O)n(Cc3ccc(Cl)cc3)c2=O)cc1 [S8]; false (0)
CC(C)(C)c1ccc(Cn2c(=O)sn(-c3ccc(C(C)(C)C)cc3)c2=O)cc1 [S36]; false (0)

**Q:** Consider the molecule Cc1ccc(-n2sc(=O)n(Cc3ccc(Cl)c(Cl)c3)c2=O)cc1 [CCG-203743] . Is its IC50 strictly less than 20 µM?
**A:** true (1)

**Q:** Consider the molecule Cc1cccc(Cn2c(=O)sn(-c3cccc(C(F)(F)F)c3)c2=O)c1 [S23] . Is its IC50 strictly less than 20 µM?
**A:** true (1)

* * *

- Study target: RGS4
- Test details: FCPIA: Gαo binding to RGS4
- Experimental conditions: Table 6, FCPIA; read-out: RGS4 IC50
pIC50 by entry:
Keep it numeric: pIC50 is minus log10 of the concentration in mol/L.

**Q:** Consider the molecule shown here: CCn1sc(=O)n(CCOC)c1=O [CCG-203920] What is its recorded pIC50?
**A:** 7.27

**Q:** Consider the molecule shown here: CCn1sc(=O)n(C)c1=O [CCG-203758] What is its recorded pIC50?
**A:** 7.65

**Q:** Consider the molecule shown here: Cc1ccc(Cn2c(=O)sn(-c3ccc(C)cc3)c2=O)cc1 [CCG-203736] What is its recorded pIC50?
**A:** 8.07

**Q:** Consider the molecule shown here: Cc1ccc(-n2sc(=O)n(CC(C)C)c2=O)cc1 [CCG-203761] What is its recorded pIC50?
**A:** 7.85

**Q:** Consider the molecule shown here: CCCCn1sc(=O)n(C)c1=O [CCG-203757] What is its recorded pIC50?
**A:** 7.63

**Q:** Consider the molecule shown here: Cc1ccc(-n2sc(=O)n(Cc3ccc(Cl)cc3)c2=O)cc1 [CCG-203731] What is its recorded pIC50?
**A:** 8.27

**Q:** Consider the molecule shown here: Cc1ccc(-n2sc(=O)n(Cc3cccc(C)c3)c2=O)cc1 [CCG-203782] What is its recorded pIC50?
**A:** 7.84

**Q:** Consider the molecule shown here: CCn1sc(=O)n(Cc2ccc(F)cc2)c1=O [CCG-203766] What is its recorded pIC50?
**A:** 7.65

**Q:** Consider the molecule shown here: Cc1ccc(Cn2sc(=O)n(Cc3ccccc3)c2=O)cc1 [CCG-203734] What is its recorded pIC50?
**A:** 8.14

* * *

- Tested on: RGS4
- Test details: FCPIA: Gαo binding to RGS4
- Experimental conditions: Table 3
Value type: RGS4 Hill Slope
Provide a numeric answer; units are not to be included.

**Q:** Consider the molecule shown here: CC(C)Cn1c(=O)sn(C(C)(C)C)c1=O What is its recorded RGS4 Hill Slope?
**A:** −0.85

**Q:** Consider the molecule shown here: Cc1ccc(-n2sc(=O)n(CC(C)C)c2=O)cc1 What is its recorded RGS4 Hill Slope?
**A:** −1.47

* * *

- Study target: 107C RGS8 (C160S) (Homo sapiens (Human), UniProt P57771, C160S)
- Sequence (P57771 other isoform, or with tags, fused parts or gaps C160S): as the sequence (P57771 other isoform, or with tags, fused parts or gaps) above, with C160S counted along it
- Test details: FCPIA: RGS8 mutant 107C
- Experimental conditions: FIG. 6
Value type: pIC50
Keep it numeric: pIC50 is minus log10 of the concentration in mol/L.

**Q:** Consider the compound shown here: Cc1ccc(-n2sc(=O)n(Cc3ccc(F)cc3)c2=O)cc1 [CCG-50014] What is its recorded pIC50?
**A:** 4.33

* * *

- Study target: RGS19 (Homo sapiens (Human))
- Sequence (P49795 whole entry, species assumed): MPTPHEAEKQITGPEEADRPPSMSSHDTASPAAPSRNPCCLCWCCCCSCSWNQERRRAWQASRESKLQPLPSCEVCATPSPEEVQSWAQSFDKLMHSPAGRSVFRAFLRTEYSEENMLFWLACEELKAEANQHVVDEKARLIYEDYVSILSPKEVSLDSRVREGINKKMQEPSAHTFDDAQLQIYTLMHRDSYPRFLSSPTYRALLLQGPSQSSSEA
- Test details: FCPIA: Gαo binding to RGS19
- Experimental conditions: Table 7
Value type: IC50 (µM)
All answers are understood in µM, so give the number only.

**Q:** Consider the compound shown here: CCCCn1c(=O)sn(CC)c1=O What is its recorded IC50?
**A:** 0.14
